B1: H2-Kb / B2 (parent)
chain 1: GEQVEQRPPHLSVREGDSAVIICTYTDPNSYYFFWYKQEPGAGLQLLMKVFSSTEINEGQGFTVLLNKKDKQLSLNLTAAHPGDSAVYFCAVSQMSNYNVLYFGSGTKLTVEP
chain 2: EAAVTQSPRNKVAVTGGKVTLSCNQTNNHNNMYWYRQDTGHGLRLIHYSYGAGSTEKGDIPDGYKASRPSQENFSLILELATPSQTSVYFCASGTGGSGQLYFGEGSKLTVL
chain 3: not shown
chain 4: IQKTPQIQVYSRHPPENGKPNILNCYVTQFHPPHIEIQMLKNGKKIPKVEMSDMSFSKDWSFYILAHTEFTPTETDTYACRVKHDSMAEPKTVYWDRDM
chain 5: SIINFEKL

- Variants of: B1
- Protocol summary: % of reporter cells activated (NFAT-GFP), raw; note: test concentration or dose not given here
- Condition set: with B2; scale: % of reporter cells activated
# ratio to parent >= 0.7 gives Condition met, anything below gives Condition not met

Ask | Kindly determine if ratio to parent recorded for chain 5 N4C is above or exactly 0.7.
Reply | Condition not met
